Measurement target: Fibroblast growth factor 2 (Homo sapiens) (UniProt P09038)
Sequence (P09038 whole entry, looked up): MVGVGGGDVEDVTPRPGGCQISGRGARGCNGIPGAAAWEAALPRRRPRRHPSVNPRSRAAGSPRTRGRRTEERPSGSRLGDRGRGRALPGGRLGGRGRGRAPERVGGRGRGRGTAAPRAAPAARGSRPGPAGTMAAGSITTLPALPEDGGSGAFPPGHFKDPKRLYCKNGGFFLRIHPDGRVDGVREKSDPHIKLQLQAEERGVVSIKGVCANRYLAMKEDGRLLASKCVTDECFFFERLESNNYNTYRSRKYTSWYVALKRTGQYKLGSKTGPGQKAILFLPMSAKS
Assay notes: basic fibroblast growth factor binding to printed compounds – biochemical, small-molecule microarray, 635/667 nm fluorescence, primary screen (AID 1133)
Cond: FGF2, fluorescence 635/667, higher = more signal
Think of -0.2 as a floor: if composite z-score stands on it or above, it is 1.0; beneath it, 0.0.

# Compound, Label class
records = [
    ("O=C1OCCC/C=C\\[C@H]2OC34C=CCN(CCN5CCOCC5)C(=O)[C@H]3N(CCO)C(=O)[C@@H]4C12 (some centres undefined)", 0.0),
    ("[N-]=[N+]=Nc1ccccc1[C@@H]1OC(c2ccc(OCCCO)cc2)=N[C@]1(CCS(=O)(=O)c1ccccc1)C(=O)N1CCCCC1", 1.0),
    ("CCOC1=C2C(c3ccc(C)cc3)N(S(=O)(=O)c3ccc(C)cc3)CC2n2c(=O)n(-c3ccccc3)c(=O)n2C1 (centres undefined)", 1.0),
    ("CC(C)C(O)C1C=CC2C(=O)N(C)C(=O)C2N1N1CCCCC1 (centres undefined)", 1.0),
    ("O=C(NCc1ccccc1)[C@@H]1c2ccccc2C(=O)N(Cc2cc(F)cc(C(F)(F)F)c2)[C@H]1c1ccc(CO)cc1", 1.0),
    ("[N-]=[N+]=NCc1ccccc1C[C@]1(C(N)=O)N=C(c2ccc(OCCCO)cc2)O[C@H]1c1ccccc1N=[N+]=[N-]", 0.0),
    ("CN(C)CCCCCCNC(=O)[C@@H]1C[C@@H]2C(=O)N[C@@H](Cc3ccccc3)C(=O)N2[C@@H]1c1cccc(OCCO)c1", 1.0),
    ("O=C1OCC=C[C@H]2OC34C=CCN(CCN5CCOCC5)C(=O)[C@H]3N(CCCCCCO)C(=O)[C@@H]4[C@@H]12 (some centres undefined)", 1.0),
    ("CC(=O)NCCCC[C@@H]1NC(=O)[C@@H]2C[C@H](C(=O)NCCCCCC[N+](C)(C)C)[C@H](c3cccc(OCCO)c3)N2C1=O", 1.0),
    ("COC(=O)[C@@]1(Cc2ccc(F)cc2)[C@H]2c3cc(C(=O)N4CCCC4)n(CCc4ccc(OC)c(Br)c4)c3C[C@H]2CN1C(=O)c1ccccc1", 0.0),
    ("COCC1C2CC[C@H]3C(OCc4ccc(F)cc4C(F)(F)F)OC[C@]4(C)[C@H]3C2=C(CN4C(=O)OC(C)(C)C)[C@H](C)C1COC (some centres undefined)", 0.0),
    ("C=C(CCCC)C(=O)CC[C@H](OC(=O)c1ccccc1-c1ccccc1C(=O)O)c1ccc(CO)o1", 1.0),
    ("COC(=O)[C@@]1(Cc2ccc(OC)cc2)[C@H]2c3cc(C(=O)N(C)C)n(CCSCCO)c3C[C@H]2CN1C(=O)c1ccccc1", 0.0),
    ("C=C(COC)C(=O)CC[C@H](OC(=O)c1cccnc1)c1ccccc1OCCO", 1.0),
    ("O=C1OCCC/C=C\\[C@H]2OC34C=CCN(Cn5nnc6ccccc65)C(=O)[C@H]3N(CCCO)C(=O)[C@@H]4C12 (some centres undefined)", 0.0),
    ("O=C1O[C@@H](c2ccccc2)[C@@H](c2ccccc2)N2[C@@H](c3ccccc3OCCO)[C@]3(C(=O)Nc4ccc(C#CC5(O)CCCCCC5)cc43)[C@@H](C(=O)NC[C@H](O)c3ccccc3)[C@H]12", 1.0),
    ("O=C(CS)NCCCCCCNC(=O)[C@H]1C[C@H]2C(=O)N3CCC[C@H]3C(=O)N2[C@H]1c1ccc(O)cc1", 1.0),
    ("COc1ccc([Si](C)(C)[C@@H]2[C@@H](CCO)O[C@]3(C(=O)N(Cc4ccc(N5C(=O)c6cccc7cccc5c67)cc4)c4ccccc43)[C@H]2C)cc1", 0.0),
    ("CCCC[C@H]1OB(O)C[C@H]2C1=C(COc1ccccc1)C[C@H]1C(=O)N(Cc3ccccc3)C(=O)[C@H]12", 1.0),
    ("Cn1c2c(c3ccccc31)C(=O)C1NC2C=CC1(C)C(=O)OCc1ccccc1 (centres undefined)", 0.0),
    ("C=C[C@H](OC)[C@@H](OC(=O)Nc1ccc(SC)cc1)c1ccc(OCCO)cc1", 1.0),
    ("CN(C)CCCC[C@@H]1NC(=O)[C@@H]2C[C@H](C(=O)NCc3ccc(F)cc3)[C@H](c3cccc(OCCO)c3)N2C1=O", 1.0),
    ("CC(C)[Si]1(C(C)C)O[C@@H](c2ccccc2)c2cc(-c3ccc(-c4ccc(Cl)c(Cl)c4)o3)nc(CCc3ccccc3)c21", 0.0),
    ("O=C1C2C=CC(C(O)C3CC=CCC3)N(n3cnnc3)C2C(=O)N1Cc1ccccc1 (centres undefined)", 0.0),
    ("C=CCC(OC(C)=O)[C@@H]1[C@@H](N(Cc2ccc(-c3ccccc3)cc2)C(=O)c2ccc(C)cc2)c2cc(OCCCO)ccc2N1C(=O)Cc1ccc(OC)cc1 (some centres undefined)", 1.0),
    ("COC(=O)C(CC#Cc1ccc2c(c1)[C@]1(C(=O)N2)[C@H](C(=O)N2CCCCCCC2)[C@H]2C(=O)O[C@H](c3ccccc3)[C@H](c3ccccc3)N2[C@@H]1c1ccccc1OCCO)C(=O)OC", 1.0),
    ("CCOC(=O)C1=CC[C@@H](c2ccccc2)N(S(=O)(=O)c2ccc(C)cc2)[C@H]1c1ccc(C#N)cc1", 0.0),
    ("COc1ccc([Si](C)(C)[C@H]2[C@H](CCO)O[C@@]3(C(=O)N(Cc4cccc(N5C(=O)c6cccc7cccc5c67)c4)c4ccccc43)[C@@H]2C)cc1", 0.0),
    ("Oc1ccc2cc[n+](Cc3cccc(OC(F)(F)F)c3)cc2c1", 1.0),
]
